Measured values drawn from ChEMBL document CHEMBL4680232 for this set.

For each entry below, report its RBA value.
Tested System: Endoplasmic reticulum chaperone BiP (Homo sapiens) (UniProt P11021)
Sequence (P11021 whole entry): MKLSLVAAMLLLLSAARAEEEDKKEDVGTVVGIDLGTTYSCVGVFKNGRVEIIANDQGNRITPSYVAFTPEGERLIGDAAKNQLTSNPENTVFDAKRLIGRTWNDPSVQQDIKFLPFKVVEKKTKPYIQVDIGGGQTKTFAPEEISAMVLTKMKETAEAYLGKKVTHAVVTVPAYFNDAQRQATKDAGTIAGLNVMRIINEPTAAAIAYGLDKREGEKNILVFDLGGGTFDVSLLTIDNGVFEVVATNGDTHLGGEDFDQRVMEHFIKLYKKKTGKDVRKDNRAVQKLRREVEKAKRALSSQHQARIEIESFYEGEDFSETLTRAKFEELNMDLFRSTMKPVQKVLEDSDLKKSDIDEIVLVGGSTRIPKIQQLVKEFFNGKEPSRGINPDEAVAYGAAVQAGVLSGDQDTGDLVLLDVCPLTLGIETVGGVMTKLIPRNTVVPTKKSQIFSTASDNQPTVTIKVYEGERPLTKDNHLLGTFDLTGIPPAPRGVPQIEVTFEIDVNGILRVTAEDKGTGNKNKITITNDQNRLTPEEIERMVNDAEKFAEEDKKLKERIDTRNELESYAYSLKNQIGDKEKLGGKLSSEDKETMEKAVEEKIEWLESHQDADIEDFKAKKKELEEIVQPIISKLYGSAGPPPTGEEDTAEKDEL
Assay Method Text: Binding affinity to human GRP78 at 1 uM measured after 30 mins by UF-ASMS analysis relative to control
Give bare numbers, in %.

Answered cases to consult:
| Input Smiles | Tested System | Experimental Result |
| --- | --- | --- |
| O=C(/C=C/c1ccc(O)c(O)c1)OCCc1ccc(Br)cc1 | Endoplasmic reticulum chaperone BiP (Homo sapiens) (UniProt P11021) | 90 |
| COc1ccc(/C=C/C(=O)OCCc2ccccc2)cc1 | Endoplasmic reticulum chaperone BiP (Homo sapiens) (UniProt P11021) | 64 |
| CC(=O)Nc1ccc(OCc2ccc(-c3oc4ccccc4c3C(=O)NCC(C)C)cc2)cc1 | Endoplasmic reticulum chaperone BiP (Homo sapiens) (UniProt P11021) | 61 |

Provide RBA value for the following molecule: O=c1[nH]c2nccc(OCCc3ccccc3)c2[nH]c1=O
1000

----------
Tested System: Endoplasmic reticulum chaperone BiP (Homo sapiens)
Assay Method Text: Binding affinity to human GRP78 at 1 uM measured after 30 mins by UF-ASMS analysis relative to control
Assay Endpoint: RBA (%)
Numbers only, in %.

| Input Smiles | Readout Units | RBA |
| --- | --- | --- |
| CC(C)CNC(=O)c1c(-c2ccc(CO)cc2)oc2ccccc12 | % | 180 |
| O=C(O[C@@H]1Cc2c(O)cc(O)cc2O[C@@H]1c1cc(O)c(O)c(O)c1)c1cc(O)c(O)c(O)c1 | % | 271 |
| CC(C)CNC(=O)c1c(-c2ccc(COC(=O)c3ccccc3O)cc2)oc2ccccc12 | % | 501 |
| O=c1[nH]c2ccc(OCCc3ccccc3)nc2[nH]c1=O | % | 536 |

Kindly give each listed record's RBA.
1. O=C(/C=C/c1ccc(O)c(O)c1)OCCc1ccccc1
2. Cc1oc(-c2ccccc2)nc1CCOc1cccc2oc(CCC(=O)O)nc12
3. Nc1ccc2[nH]c(=O)c(=O)[nH]c2c1
4. CC(C)CNC(=O)c1c(-c2ccc(COC(=O)c3ccc(N(C)C)cc3)cc2)oc2ccccc12
5. CCOS(=O)(=O)/C=C/c1ccc(OC)c(OCCc2nc(-c3ccccc3)sc2C)c1
6. COc1cc(OC)cc(C(=O)OCc2ccc(-c3oc4ccccc4c3C(=O)NCC(C)C)cc2)c1

1: 98; 2: 160; 3: 119; 4: 54; 5: 129; 6: 143
